- System name: WT AKR1D1 (Homo sapiens, UniProt P51857)
- Sequence (P51857 whole entry): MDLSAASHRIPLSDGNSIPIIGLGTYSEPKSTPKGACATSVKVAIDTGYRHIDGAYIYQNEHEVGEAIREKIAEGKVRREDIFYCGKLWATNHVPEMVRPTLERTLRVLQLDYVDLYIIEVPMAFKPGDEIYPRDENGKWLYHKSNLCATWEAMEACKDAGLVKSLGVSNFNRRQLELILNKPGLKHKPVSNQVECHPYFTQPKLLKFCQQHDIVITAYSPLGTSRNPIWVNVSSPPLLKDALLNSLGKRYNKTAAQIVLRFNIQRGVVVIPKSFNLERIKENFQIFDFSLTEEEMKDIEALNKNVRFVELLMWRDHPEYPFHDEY
- Protocol description: Steady-state kinetic analysis of steroid reduction
- Format: biochemical
- Details: Ki (substrate inhibition; dissociation constant for substrate from the E-NADP+ complex), 10 mM KPi
Attribute measured: pKi
pKi here: minus log base 10 of the concentration, concentration in moles per litre.

Consider CC(C)CCC[C@@H](C)[C@H]1CC[C@H]2[C@@H]3[C@H](O)CC4=CC(=O)CC[C@]4(C)[C@H]3CC[C@]12C [7α-hydroxycholest-4-en-3-one] . Its measured pKi is 4.26

====

- System name: P133R AKR1D1 (Homo sapiens, UniProt P51857, P133R)
- Sequence (P51857 whole entry P133R): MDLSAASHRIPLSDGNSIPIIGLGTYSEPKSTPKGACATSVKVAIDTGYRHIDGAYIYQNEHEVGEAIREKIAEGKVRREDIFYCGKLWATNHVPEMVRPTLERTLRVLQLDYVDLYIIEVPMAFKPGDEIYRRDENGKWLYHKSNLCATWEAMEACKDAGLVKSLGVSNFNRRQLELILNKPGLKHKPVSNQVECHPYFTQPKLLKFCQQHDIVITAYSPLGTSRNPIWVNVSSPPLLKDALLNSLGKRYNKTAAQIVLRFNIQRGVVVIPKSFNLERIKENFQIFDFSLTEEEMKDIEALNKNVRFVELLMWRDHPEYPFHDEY
- Protocol description: Steady-state kinetic analysis of steroid reduction
Attribute measured: Ki (µM)
Provide the reading as a plain figure in µM.

Response field Ki (P133R AKR1D1 (Homo sapiens, UniProt P51857, P133R)) for item CC(C)CCC[C@@H](C)[C@H]1CC[C@H]2[C@@H]3[C@H](O)CC4=CC(=O)CC[C@]4(C)[C@H]3CC[C@]12C [7α-hydroxycholest-4-en-3-one] : 51

====

Recorded Kd for the following molecules
- System name: P133R AKR1D1 (Homo sapiens, UniProt P51857, P133R)
- Protocol description: Steroid binding, quenching of energy transfer band of E·NADPH complex
# output: number + unit

CC(C)(C)NC(=O)[C@H]1CC[C@H]2[C@@H]3CC[C@H]4NC(=O)C=C[C@]4(C)[C@H]3CC[C@]12C [finasteride]: 14.2 µM

Alright, here's another molecule for you.
Consider CC(C)CCC[C@@H](C)[C@H]1CC[C@H]2[C@@H]3[C@H](O)CC4=CC(=O)CC[C@]4(C)[C@H]3CC[C@]12C [7α-hydroxycholest-4-en-3-one] . Its measured Kd is 13.6 µM

====

Recorded Kd for the following compounds
- System name: P133R AKR1D1 (Homo sapiens, UniProt P51857, P133R)
- Protocol description: Cofactor binding, quenching of intrinsic protein fluorescence
- Details: 100 mM KPi, pH 7.0, 37 °C

NC(=O)C1=CN([C@@H]2O[C@H](COP(=O)(O)OP(=O)(O)OC[C@H]3O[C@@H](n4cnc5c(N)ncnc54)[C@H](O)[C@@H]3O)[C@@H](O)[C@H]2O)C=CC1: 34.5 µM

Response field Kd (P133R AKR1D1 (Homo sapiens, UniProt P51857, P133R)) for item `NC(=O)c1ccc[n+]([C@@H]2O[C@H](COP(=O)([O-])OP(=O)(O)OC[C@H]3O[C@@H](n4cnc5c(N)ncnc54)[C@H](OP(=O)(O)O)[C@@H]3O)[C@@H](O)[C@H]2O)c1` : 27.1 µM
